The origin of these recorded values is ChEMBL document CHEMBL1138658.

molecular target: 5-hydroxytryptamine receptor 7 (Rattus norvegicus, UniProt P32305); assay: Inhibition of [3H]-5-HT binding to rat 5-hydroxytryptamine 7 receptor
Sequence (P32305 whole entry): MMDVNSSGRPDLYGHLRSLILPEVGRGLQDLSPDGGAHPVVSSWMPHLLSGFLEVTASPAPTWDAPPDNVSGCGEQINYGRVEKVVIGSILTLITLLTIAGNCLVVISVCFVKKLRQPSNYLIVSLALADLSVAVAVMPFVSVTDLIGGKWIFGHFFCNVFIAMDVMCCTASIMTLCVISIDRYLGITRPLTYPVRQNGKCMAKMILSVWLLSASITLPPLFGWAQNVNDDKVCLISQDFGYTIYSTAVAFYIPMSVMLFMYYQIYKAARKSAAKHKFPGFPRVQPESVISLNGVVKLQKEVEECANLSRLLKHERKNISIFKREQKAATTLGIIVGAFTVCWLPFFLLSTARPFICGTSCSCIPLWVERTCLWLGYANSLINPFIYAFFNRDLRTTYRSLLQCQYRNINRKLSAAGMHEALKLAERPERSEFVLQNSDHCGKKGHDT
pKi: −log10 of the molar value.
Recorded Endpoint: pKi

Compound: CCCN(CCC)[C@H]1CCc2c(cccc2-c2ccccc2)C1
Reported Measurement: 8.47
--
Compound: O=S(=O)(c1ccc2c(c1)CC=C2)N1CCC[C@@H]1CCN1CCC(Oc2ccc(Cl)cc2)CC1
Reported Measurement: 8.70
--
Compound: CCCN(CCC)[C@H]1CCc2c(cccc2-c2c(OC)cccc2OC)C1
Reported Measurement: 8.10
--
Compound: COc1cccc(OC)c1-c1cccc2c1CC[C@H](N)C2
Reported Measurement: 7.10
--
Compound: CCCN(CCC)[C@H]1CCc2c(cccc2-c2ccc(OC)cc2)C1
Reported Measurement: 7.91
--
Compound: O=C1Nc2cccc3c2C1(CCCCN1CCc2sccc2C1)CCC3 (stereo unspecified)
Reported Measurement: 8.19
